microsomal CLint values for the compounds below.
# assay_protocol: Intrinsic clearance in mouse liver microsomes up to 40 mins in presence of NADPH
# Type: ADME, microsome
# assay_context: read-out: CLH
Your answer should be a number followed by the unit of measure.

Answered cases to consult:
compound	microsomal CLint
CN1C(=O)[C@@H]2CN(S(=O)(=O)c3ccc(F)c(Cl)c3)C[C@@H]2c2cnccc21	432 µL/min/mg
CN1C(=O)[C@@H]2CN(S(=O)(=O)c3ccc4occc4c3)C[C@@H]2c2cnccc21	188 µL/min/mg
CN1C(=O)[C@@H]2CN(S(=O)(=O)c3ccn4ccnc4c3)C[C@@H]2c2cnccc21	36 µL/min/mg

// query Determine from records and report microsomal CLint for C[C@H]1[C@H]2C(=O)N(C)c3ccncc3[C@H]2CN1S(=O)(=O)c1ccc2c(c1)OCO2
// result 254 µL/min/mg

// query Determine from records and report microsomal CLint for O=S(=O)(c1ccc2c(c1)OCO2)N1C[C@@H]2c3nccn3-c3ccccc3[C@@H]2C1
// result 1670 µL/min/mg
